targetOfAssay: egg albumin (Gallus gallus, UniProt P01012)
Sequence (P01012 2-386): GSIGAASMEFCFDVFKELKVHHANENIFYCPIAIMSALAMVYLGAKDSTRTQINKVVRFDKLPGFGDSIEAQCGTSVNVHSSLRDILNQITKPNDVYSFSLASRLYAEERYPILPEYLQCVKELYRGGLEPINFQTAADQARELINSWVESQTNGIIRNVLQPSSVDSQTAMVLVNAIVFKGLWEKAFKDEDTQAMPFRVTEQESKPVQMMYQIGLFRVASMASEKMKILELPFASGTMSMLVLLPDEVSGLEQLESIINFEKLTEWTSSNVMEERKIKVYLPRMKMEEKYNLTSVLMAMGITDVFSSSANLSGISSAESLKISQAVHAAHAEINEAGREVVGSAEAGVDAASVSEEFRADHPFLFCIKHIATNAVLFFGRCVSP
testDescription: Albumin denaturation assay (in vitro anti-inflammatory activity)
Set-up: species or system hen
conditionDescription: 150 μM; means ± SD, n = 3; read-out: percentage inhibition of albumin denaturation
measurementType: inhibition at 150 µM (%)

{"columns": ["compound", "measurementType", "testResult"],
 "data": [
  ["C=CCc1ccc(OCC(=O)Nc2cccc(C)c2)c(OC)c1", "inhibition at 150 µM", 22.4],
  ["C=CCc1ccc(OCC(=O)Nc2ccc(OC)cc2)c(OC)c1", "inhibition at 150 µM", 9.45],
  ["C=CCc1ccc(OCC(=O)Nc2ccc(Cl)cc2)c(OC)c1", "inhibition at 150 µM", 38.5],
  ["C=CCc1ccc(OCC(=O)Nc2ccc(C)cc2)c(OC)c1", "inhibition at 150 µM", 17.2],
  ["O=C(O)Cc1ccccc1Nc1c(Cl)cccc1Cl [Standard diclofenac, Diclofenac sodium, reference compound]", "inhibition at 150 µM", 48.3]
]}

----------
targetOfAssay: PPARγ LBD protein (Homo sapiens, UniProt P37231)
Construct: 1 nM 6xHis-PPAR LBD protein
testDescription: LanthaScreen TR-FRET competitive ligand displacement (PPARγ protein binding) assay
conditionDescription: TR-FRET signal at 0.8 µM

{"columns": ["compound", "Raw Data (RLU)"],
 "data": [
  ["C=CCc1ccc(OCC(=O)Nc2ccc(C)cc2)c(OC)c1 [Compound 1A]", 1.99],
  ["C=CCc1ccc(OCC(=O)Nc2cccc(C)c2)c(OC)c1 [Compound 1D]", 1.91],
  ["C=CCc1ccc(OCC(=O)Nc2ccc(Cl)cc2)c(OC)c1 [Compound 1C]", 1.922],
  ["C=CCc1ccc(OCC(=O)Nc2ccc(OC)cc2)c(OC)c1 [Compound 1B]", 2.002]
]}

----------
targetOfAssay: PPARγ LBD protein (Homo sapiens, UniProt P37231)
Construct: 1 nM 6xHis-PPAR LBD protein
testDescription: LanthaScreen TR-FRET competitive ligand displacement (PPARγ protein binding) assay
conditionDescription: TR-FRET signal at 0.00128 µM
Measured Raw Data (RLU) by item
measurementType: Raw Data (RLU)

{"columns": ["lineNotation", "testResult"],
 "data": [
  ["C=CCc1ccc(OCC(=O)Nc2cccc(C)c2)c(OC)c1", 1.85],
  ["C=CCc1ccc(OCC(=O)Nc2ccc(OC)cc2)c(OC)c1", 1.965],
  ["C=CCc1ccc(OCC(=O)Nc2ccc(C)cc2)c(OC)c1", 2.02],
  ["C=CCc1ccc(OCC(=O)Nc2ccc(Cl)cc2)c(OC)c1", 1.907]
]}

----------
Measured Raw Data - Background (RLU) by item
targetOfAssay: PPARγ LBD protein (Homo sapiens)
Construct: 1 nM 6xHis-PPAR LBD protein
Sequence (P37231 238-503 limits assumed): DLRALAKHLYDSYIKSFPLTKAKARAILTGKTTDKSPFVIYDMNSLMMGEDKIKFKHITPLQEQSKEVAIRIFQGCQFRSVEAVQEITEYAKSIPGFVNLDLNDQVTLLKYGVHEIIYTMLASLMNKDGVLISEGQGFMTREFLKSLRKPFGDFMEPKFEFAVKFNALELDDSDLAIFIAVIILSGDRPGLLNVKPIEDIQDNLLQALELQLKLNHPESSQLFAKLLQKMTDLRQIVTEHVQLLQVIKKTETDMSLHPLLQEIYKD
testDescription: LanthaScreen TR-FRET competitive ligand displacement (PPARγ protein binding) assay
conditionDescription: TR-FRET signal at 0.0000512 µM

{"columns": ["molecule", "targetOfAssay", "unitOfMeasure", "Raw Data - Background (RLU)"],
 "data": [
  ["C=CCc1ccc(OCC(=O)Nc2ccc(C)cc2)c(OC)c1 [Compound 1A]", "PPARγ LBD protein (Homo sapiens)", "RLU", 1.84],
  ["C=CCc1ccc(OCC(=O)Nc2ccc(Cl)cc2)c(OC)c1 [Compound 1C]", "PPARγ LBD protein (Homo sapiens)", "RLU", 1.834],
  ["C=CCc1ccc(OCC(=O)Nc2cccc(C)c2)c(OC)c1 [Compound 1D]", "PPARγ LBD protein (Homo sapiens)", "RLU", 1.69],
  ["C=CCc1ccc(OCC(=O)Nc2ccc(OC)cc2)c(OC)c1 [Compound 1B]", "PPARγ LBD protein (Homo sapiens)", "RLU", 1.789]
]}

----------
targetOfAssay: PPARγ LBD protein (Homo sapiens, UniProt P37231)
Construct: 1 nM 6xHis-PPAR LBD protein
testDescription: LanthaScreen TR-FRET competitive ligand displacement (PPARγ protein binding) assay
conditionDescription: TR-FRET signal at 4 µM
Measured Raw Data (RLU) by item

{"columns": ["lineNotation", "Raw Data (RLU)"],
 "data": [
  ["C=CCc1ccc(OCC(=O)Nc2cccc(C)c2)c(OC)c1", 1.91],
  ["C=CCc1ccc(OCC(=O)Nc2ccc(OC)cc2)c(OC)c1", 1.855],
  ["C=CCc1ccc(OCC(=O)Nc2ccc(C)cc2)c(OC)c1", 1.57],
  ["C=CCc1ccc(OCC(=O)Nc2ccc(Cl)cc2)c(OC)c1", 1.761]
]}

----------
targetOfAssay: PPARγ LBD protein (Homo sapiens, UniProt P37231)
Construct: 1 nM 6xHis-PPAR LBD protein
testDescription: LanthaScreen TR-FRET competitive ligand displacement (PPARγ protein binding) assay
conditionDescription: TR-FRET signal at 0.16 µM
Measured Raw Data - Background (RLU) by item
measurementType: Raw Data - Background (RLU)

{"columns": ["compound", "testResult"],
 "data": [
  ["C=CCc1ccc(OCC(=O)Nc2ccc(Cl)cc2)c(OC)c1 [Compound 1C]", 1.686],
  ["C=CCc1ccc(OCC(=O)Nc2ccc(C)cc2)c(OC)c1 [Compound 1A]", 1.716],
  ["C=CCc1ccc(OCC(=O)Nc2cccc(C)c2)c(OC)c1 [Compound 1D]", 1.64],
  ["C=CCc1ccc(OCC(=O)Nc2ccc(OC)cc2)c(OC)c1 [Compound 1B]", 1.724]
]}

----------
targetOfAssay: egg albumin (Gallus gallus, UniProt P01012)
testDescription: Albumin denaturation assay (in vitro anti-inflammatory activity)
Parameters: species or system hen
conditionDescription: 200 μM; means ± SD, n = 3; read-out: percentage inhibition of albumin denaturation
measurementType: inhibition at 200 µM (%)

{"columns": ["lineNotation", "testResult"],
 "data": [
  ["C=CCc1ccc(OCC(=O)Nc2cccc(C)c2)c(OC)c1", 29.6],
  ["C=CCc1ccc(OCC(=O)Nc2ccc(Cl)cc2)c(OC)c1", 48.1],
  ["C=CCc1ccc(OCC(=O)Nc2ccc(C)cc2)c(OC)c1", 25.4]
]}

----------
targetOfAssay: egg albumin (Gallus gallus)
testDescription: Albumin denaturation assay (in vitro anti-inflammatory activity)
Design: species or system hen
conditionDescription: 50 μM; means ± SD, n = 3; read-out: percentage inhibition of albumin denaturation

{"columns": ["molecule", "unitOfMeasure", "inhibition at 50 µM"],
 "data": [
  ["C=CCc1ccc(OCC(=O)Nc2ccc(OC)cc2)c(OC)c1 [Compound 1B]", "%", 8.59],
  ["O=C(O)Cc1ccccc1Nc1c(Cl)cccc1Cl [Standard diclofenac, Diclofenac sodium, reference compound]", "%", 38.5],
  ["C=CCc1ccc(OCC(=O)Nc2ccc(Cl)cc2)c(OC)c1 [Compound 1C]", "%", 22.6]
]}

Reference source for all entries: paper PMC9172550
